Cited source: patent US20250057859A1

- assayOverview: SK-MEL-28 cell line toxicity (Cell titer Glo viability)
- Assay type: cell-based
- testParameters: human, SK-MEL-28 melanoma cells; SK-MEL-28, 0.00017 uM, 72 h
observedProperty: viability at 72 h, 0.00017 µM (%)
Only the number, expressed in %, is required.

// query Which viability at 72 h, 0.00017 µM reading was recorded for the compound CN[C@@H]1C[C@H]2O[C@@](C)([C@@H]1OC)n1c3ccccc3c3c4c(c5c6ccccc6n2c5c31)C(=O)NC4 [Staurosporine, staurosporine, reference compound] ?
// result 96.2

###

- studySystem: Recombinant human ALOX15 (Arachidonate 15-Lipoxygenase) (Homo sapiens)
- Construct: full length encompassing amino acids 2-662(end); FLAG (N); purchased BPS Biosciences 50220
- assayOverview: Biochemical LOX-15 assay
- testParameters: 50 nM recombinant enzyme, 50 uM AA; read-out: 15-Lox inhibitory activity IC50
observedProperty: IC50 (µM)
Only the number, expressed in µM, is required.

// query Which IC50 reading was recorded for the compound CCCCCC1=C(NCCC)C(=O)C2=C(OC(C)(CCC=C(C)C)C=C2)C1=O (stereo not shown) [Formula XXV] ?
// result 5.7

// query Then this compound: CCCCCC1=CC(=O)C2=C(O[C@](C)(CCC=C(C)C)C=C2)C1=O [Formula XXVI]
// result 1.93

// query Then this compound: CCCCCC1=CC(=O)C2=C(OC(C)(CCC=C(C)C)C=C2)C1=O (stereo not shown) [Formula II]
// result 5.4

// query Then this compound: CCCCCc1cc(O)c2c(c1O)OC(C)(CCC=C(C)C)C=C2 (stereo not shown) [Formula XXII]
// result 1.22

###

- assayOverview: SK-MEL-28 cell line toxicity (Cell titer Glo viability)
- Assay type: cell-based
- testParameters: human, SK-MEL-28 melanoma cells; SK-MEL-28, 0.00051 uM, 72 h
observedProperty: viability at 72 h, 0.00051 µM (%)
Only the number, expressed in %, is required.

// query Which viability at 72 h, 0.00051 µM reading was recorded for the molecule CN[C@@H]1C[C@H]2O[C@@](C)([C@@H]1OC)n1c3ccccc3c3c4c(c5c6ccccc6n2c5c31)C(=O)NC4 [Staurosporine, staurosporine, reference compound] ?
// result 94.9

###

- assayOverview: PC3 cell line toxicity (Cell titer Glo viability)
- Format: cell-based
- testParameters: human, PC3 prostate adenocarcinoma cells; PC3, 10 uM, 72 h
observedProperty: viability at 72 h, 10 µM (%)
Only the number, expressed in %, is required.

// query Which viability at 72 h, 10 µM reading was recorded for the compound CN[C@@H]1C[C@H]2O[C@@](C)([C@@H]1OC)n1c3ccccc3c3c4c(c5c6ccccc6n2c5c31)C(=O)NC4 [Staurosporine, staurosporine, reference compound] ?
// result 6.8

###

- studySystem: cannabinoid receptor 1 (CNR1) (Homo sapiens, UniProt P21554)
- Sequence (P21554 whole entry): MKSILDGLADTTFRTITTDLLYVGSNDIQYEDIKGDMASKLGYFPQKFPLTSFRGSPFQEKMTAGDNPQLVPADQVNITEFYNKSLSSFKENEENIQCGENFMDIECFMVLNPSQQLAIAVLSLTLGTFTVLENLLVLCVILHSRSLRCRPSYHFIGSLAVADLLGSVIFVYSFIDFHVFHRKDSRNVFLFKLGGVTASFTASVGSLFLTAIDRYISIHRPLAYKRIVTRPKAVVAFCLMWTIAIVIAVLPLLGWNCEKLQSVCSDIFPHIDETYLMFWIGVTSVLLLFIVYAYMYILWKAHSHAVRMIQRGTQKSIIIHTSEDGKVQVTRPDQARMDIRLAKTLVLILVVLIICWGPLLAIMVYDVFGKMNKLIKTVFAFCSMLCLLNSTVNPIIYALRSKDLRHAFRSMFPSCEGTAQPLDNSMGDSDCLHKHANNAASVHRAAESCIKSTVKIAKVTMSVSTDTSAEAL
- assayOverview: CB1 receptor agonist assay (cAMP Hunter eXpress, CNR1 CHO-K1)
- testParameters: Forskolin-stimulated CNR1 CHO-K1
observedProperty: pEC50
Remember, pEC50 is on a log scale: it is -log10 of the molar concentration.

// query Which pEC50 reading was recorded for the compound CCCCCc1cc(O)c2c(c1)OC(C)(C)C1CCC(CO)=CC21 (stereo not shown) [11-hydroxy-THC] ?
// result 9.00

###

- Tested on: IL-6
- assayOverview: IL-6 secretion assay in human PBMCs (LPS-stimulated, ELISA)
- Format: cell-based
- testParameters: PBMC, LPS 100 ng/mL 6 hr, read-out: IL6 inhibitory activity IC50
pIC50: −log10 of the molar value.
observedProperty: pIC50

Some entries whose results are on file:
* CCCCCc1cc(O)c2c(c1O)OC(C)(CCC=C(C)C)C=C2 (stereo not drawn) | < 5.00
* CC(C)=CCCC1(C)C=CC2=C(O1)C(=O)c1ccccc1C2=O (stereo not drawn) | < 5.00

Proceed to the following item.
// query Which pIC50 reading was recorded for the molecule CCCCCC1=C(NCC)C(=O)C2=C(OC(C)(CCC=C(C)C)C=C2)C1=O (stereo not drawn) ?
// result < 5.00

###

Catalogue of IC50 values
- studySystem: Recombinant human ALOX15 (Arachidonate 15-Lipoxygenase) (Homo sapiens, UniProt P16050)
- Construct: full length encompassing amino acids 2-662(end); FLAG (N); purchased BPS Biosciences 50220
- Sequence (P16050 2-662): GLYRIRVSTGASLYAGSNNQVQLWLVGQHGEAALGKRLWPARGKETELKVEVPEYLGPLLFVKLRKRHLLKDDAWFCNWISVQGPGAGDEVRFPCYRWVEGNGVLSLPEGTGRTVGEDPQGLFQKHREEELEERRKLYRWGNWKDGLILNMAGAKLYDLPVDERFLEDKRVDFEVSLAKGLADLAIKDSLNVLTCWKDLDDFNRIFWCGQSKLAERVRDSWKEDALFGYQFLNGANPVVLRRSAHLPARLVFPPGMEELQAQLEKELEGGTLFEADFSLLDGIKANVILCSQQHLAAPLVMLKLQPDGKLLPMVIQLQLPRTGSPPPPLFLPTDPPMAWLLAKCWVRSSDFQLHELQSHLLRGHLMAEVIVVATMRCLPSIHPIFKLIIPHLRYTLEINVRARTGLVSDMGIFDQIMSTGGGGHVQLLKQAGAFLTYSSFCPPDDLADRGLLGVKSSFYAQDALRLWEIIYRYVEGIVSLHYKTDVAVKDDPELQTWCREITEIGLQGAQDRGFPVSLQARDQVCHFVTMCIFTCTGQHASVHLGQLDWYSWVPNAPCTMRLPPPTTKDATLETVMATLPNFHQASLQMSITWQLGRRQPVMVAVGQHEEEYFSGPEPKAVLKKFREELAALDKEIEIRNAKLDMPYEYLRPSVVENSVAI
- assayOverview: Biochemical LOX-15 assay
- testParameters: 50 nM recombinant enzyme, 50 uM AA; read-out: 15-Lox inhibitory activity IC50

• CCCCCC1=C(NCC)C(=O)C2=C(OC(C)(CCC=C(C)C)C=C2)C1=O (stereo not drawn) = > 10 µM

// query Which IC50 reading was recorded for the molecule CCCCCc1cc(OC(C)=O)c2c(c1OC(C)=O)OC(C)(CCC=C(C)C)C=C2 (stereo not drawn) ?
// result > 10 µM

// query Then this molecule: CCCCCc1cc(OC)c2c(c1OC)OC(C)(CCC=C(C)C)C=C2 (stereo not drawn)
// result > 10 µM
